- System: ATP-binding cassette sub-family C member 2 (Homo sapiens, UniProt Q92887)
- Sequence (Q92887 whole entry): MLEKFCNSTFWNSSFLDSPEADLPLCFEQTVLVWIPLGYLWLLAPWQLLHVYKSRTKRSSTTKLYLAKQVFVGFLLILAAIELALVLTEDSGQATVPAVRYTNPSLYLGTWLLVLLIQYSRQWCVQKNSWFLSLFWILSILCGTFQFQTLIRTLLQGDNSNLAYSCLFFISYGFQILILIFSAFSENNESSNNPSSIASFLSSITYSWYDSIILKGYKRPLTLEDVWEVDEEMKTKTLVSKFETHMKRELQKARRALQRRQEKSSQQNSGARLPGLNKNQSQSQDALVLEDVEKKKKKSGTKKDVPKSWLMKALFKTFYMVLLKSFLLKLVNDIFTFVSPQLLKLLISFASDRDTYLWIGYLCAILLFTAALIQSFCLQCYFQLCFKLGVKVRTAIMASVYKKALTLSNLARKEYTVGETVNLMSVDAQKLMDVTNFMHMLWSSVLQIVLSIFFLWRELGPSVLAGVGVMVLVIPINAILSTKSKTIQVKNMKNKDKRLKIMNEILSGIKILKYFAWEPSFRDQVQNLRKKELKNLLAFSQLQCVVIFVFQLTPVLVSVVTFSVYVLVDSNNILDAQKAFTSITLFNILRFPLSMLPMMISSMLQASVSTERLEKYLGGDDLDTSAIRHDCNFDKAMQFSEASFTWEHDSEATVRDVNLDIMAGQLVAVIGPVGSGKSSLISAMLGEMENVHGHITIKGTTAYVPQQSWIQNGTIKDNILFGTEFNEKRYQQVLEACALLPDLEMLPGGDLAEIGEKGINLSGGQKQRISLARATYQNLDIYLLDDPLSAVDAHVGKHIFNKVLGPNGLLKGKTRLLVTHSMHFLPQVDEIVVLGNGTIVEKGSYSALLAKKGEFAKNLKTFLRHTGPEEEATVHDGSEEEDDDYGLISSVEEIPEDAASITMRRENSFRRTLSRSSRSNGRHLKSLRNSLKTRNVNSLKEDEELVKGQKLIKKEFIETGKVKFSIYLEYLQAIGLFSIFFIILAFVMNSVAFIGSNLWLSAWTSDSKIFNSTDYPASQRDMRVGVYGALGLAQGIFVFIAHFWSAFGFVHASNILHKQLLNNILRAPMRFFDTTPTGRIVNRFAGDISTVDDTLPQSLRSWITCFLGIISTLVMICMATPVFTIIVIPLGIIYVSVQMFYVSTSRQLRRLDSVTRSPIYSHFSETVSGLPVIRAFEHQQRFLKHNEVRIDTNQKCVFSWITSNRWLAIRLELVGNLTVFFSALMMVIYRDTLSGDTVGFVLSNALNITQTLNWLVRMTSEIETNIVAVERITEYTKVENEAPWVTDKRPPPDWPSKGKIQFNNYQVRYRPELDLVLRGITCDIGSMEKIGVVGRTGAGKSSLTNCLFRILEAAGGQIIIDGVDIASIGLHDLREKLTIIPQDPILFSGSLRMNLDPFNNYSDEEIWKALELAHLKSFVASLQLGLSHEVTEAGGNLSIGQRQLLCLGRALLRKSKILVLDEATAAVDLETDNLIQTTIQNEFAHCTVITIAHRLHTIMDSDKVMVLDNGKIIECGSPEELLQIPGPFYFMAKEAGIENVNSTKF
- Experiment Description: Inhibition of human MRP2 expressed in baculovirus-infected Sf9 cell membrane vesicle using [3H]estradiol 17beta-D-glucuronide as substrate preincubated with vesicles for 5 mins prior to substrate addition by liquid scintillation counting analysis
Quantity: IC50

### Prompt Could you share which IC50 value was measured for "C[C@@H]1CCO[C@H]2Cn3cc(C(=O)NCc4ccc(F)cc4F)c(=O)c(O)c3C(=O)N12" ?
### Response > 100 µM

====

- System: UniProtKB P20813
- Sequence (P20813 whole entry): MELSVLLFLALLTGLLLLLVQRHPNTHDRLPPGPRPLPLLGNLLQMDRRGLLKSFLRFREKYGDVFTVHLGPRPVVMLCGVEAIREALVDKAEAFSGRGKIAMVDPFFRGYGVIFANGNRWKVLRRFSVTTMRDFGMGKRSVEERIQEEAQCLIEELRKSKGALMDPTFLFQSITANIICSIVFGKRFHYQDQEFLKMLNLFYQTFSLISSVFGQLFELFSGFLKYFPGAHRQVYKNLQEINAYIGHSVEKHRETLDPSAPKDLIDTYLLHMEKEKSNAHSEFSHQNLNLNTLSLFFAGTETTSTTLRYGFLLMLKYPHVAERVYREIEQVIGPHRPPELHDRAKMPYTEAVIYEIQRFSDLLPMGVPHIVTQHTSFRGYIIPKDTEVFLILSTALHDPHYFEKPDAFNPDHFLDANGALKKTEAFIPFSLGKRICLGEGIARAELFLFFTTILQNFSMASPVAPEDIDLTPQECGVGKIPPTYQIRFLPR
- Experiment Description: Inhibition of CYP2B6 in human liver microsomes using bupropion as substrate preincubated for 20 mins with substrate prior to initiation of reaction with NADPH by HPLC analysis
- Type: ADME
Quantity: IC50

### Prompt Lookup: IC50 / UniProtKB P20813 / C[C@@H]1CCO[C@H]2Cn3cc(C(=O)NCc4ccc(F)cc4F)c(=O)c(O)c3C(=O)N12 [DOLUTEGRAVIR]
### Response > 100 µM
